The reported numbers originate from PubChem BioAssay (NCI).

# System: K-562 leukemia
# ASSAY_METHOD_TEXT: NCI-60 one-dose screen, 48 h (100 = growth as untreated, 0 = no growth, -100 = all killed)
# TEST_CONTEXT: 10 µM unless noted
# Procedure: Cells are grown in 96 well plates and exposed to the test compound for 48 hours. Compounds are tested at a single concentration, which is 10^-5 M for most compounds. The reported endpoint is percent growth (GI% or GIPRCNT), where numbers from 0 - 100% represent growth inhibition, and numbers from -100% - 0 represent cell death. For example, a value of 40 represents 60% growth inhibition. A value of 0 means no net growth occurred over the course of the experiment. […]
Compounds without any hit were thinned out: in the full panel of roughly 83,000, 20% have a hit.
ASSAY_METRIC: growth (%)
Give bare numbers, in %.

Take each entry in turn and give its growth.
1. COCCOC(C)C(/C=N/NC(N)=S)=N/NC(N)=S (stereo not given)
2. CCN(CC)CCCNc1cc(OC)c(OC)c2cccnc12
3. S=c1ccnc[nH]1
4. O=C(/C=C/C12c3ccccc3C(c3ccccc31)C1C(=O)NC(=O)C12)c1ccco1 (stereo not given)
5. CN1C(=O)/C(=C/c2ccc(C(=O)Nc3ncc(Cc4cc(Cl)ccc4Cl)s3)cc2)SC1=S
6. CN(C)c1ccc(/C=N\NC(=O)c2ccc3nc(-c4ccc(Cl)cc4)[nH]c3c2)cc1

Reply:
37.6
66.2
113
12.9
54.7
38.8
